# assayed-target: T1, His-TRAF6_(310-522) (human, UniProt Q9Y4K3 310-522)
# T1 construct: also called His-T6; recombinant TRAF6 wild-type; source: E. coli BL21 Codon Plus RIPL, purified (Ni-NTA)
# T1 sequence: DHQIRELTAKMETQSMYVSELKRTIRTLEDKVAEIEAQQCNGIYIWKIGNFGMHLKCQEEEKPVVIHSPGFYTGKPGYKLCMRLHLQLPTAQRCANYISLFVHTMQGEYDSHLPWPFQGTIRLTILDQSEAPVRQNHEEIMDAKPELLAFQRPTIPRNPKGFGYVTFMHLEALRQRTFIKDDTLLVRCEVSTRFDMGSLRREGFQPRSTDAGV
# procedure-details: AlphaScreen or HTRF; AlphaScreen PPI assay: His-TRAF and GST-LMP1, GST-CD40 or GST-RANK in PBS with 0.5% BSA and 0.1% Tween-20, 1 h at RT; standard 300 nM His-TRAF and 100 nM GST protein if not indicated otherwise; for KD His-TRAF6 at different concentrations, fit one site-specific binding with hill slope
# measurement-setup: both partners purified

binder	binding result
GST-LMP1_(181-386) Y385A (domain or fragment, also called mutation of Y385 (alanine scan); source: E. coli DH5α or BL21 Codon Plus RIPL, purified (glutathione Sepharose 4B)) LIWMYYHGQRHSDEHHHDDSLPHPQQATDDSGHESDSNSNEGRHHLLVSGAGDGPPLCSQNLGAPGGGPDNGPQDPDNTDDNGPQDPDNTDDNGPHDPLPQDPDNTDDNGPQDPDNTDDNGPHDPLPHSPSDSAGNDGGPPQLTEEVENKGGDQGPPLMTDGGGGHSHDSGHGGGDPHLPTLLLGSSGSGGDDDDPHGPVQLSYAD	binds

Measured values drawn from paper PMC10776578 for this set.
